target: N-terminal His6-tagged recombinant full-length human Lck (Homo sapiens); construct: N-terminal His6-tagged recombinant full-length human Lck; His6 (N); purchased Millipore; assay: Lck IMAP assay; assay type: biochemical; settings: ATP 6 μM (KM,ATP), enzyme pre-incubated with compounds for 60 minutes, values given as bins
assayEndpoint: IC50

* COc1cc(-c2nc([C@H]3CC[C@H](N4CCN(C)CC4)CC3)n3ccnc(C)c23)ccc1NC(=O)c1cc2c(OC)cccc2[nH]1 | ≤ 10 nM

Note: attention shifts to another entry.
Query: # query: IC50 | item COc1cc(-c2nc(C3CCC(=O)CC3)n3ccnc(C)c23)ccc1NC(=O)c1cc2c(OC)cccc2n1C | system: N-terminal His6-tagged recombinant full-length human Lck (Homo sapiens)
Result: ≤ 10 nM

====

Each entry below carries its reported pIC50.
molecular target: N-terminal His6-tagged recombinant full-length human Lck (Homo sapiens, UniProt P06239); construct: N-terminal His6-tagged recombinant full-length human Lck; His6 (N); assay: Lck IMAP assay; conditions: ATP 6 μM (KM,ATP), enzyme pre-incubated with compounds for 60 minutes, values given as bins
Sequence (P06239 whole entry): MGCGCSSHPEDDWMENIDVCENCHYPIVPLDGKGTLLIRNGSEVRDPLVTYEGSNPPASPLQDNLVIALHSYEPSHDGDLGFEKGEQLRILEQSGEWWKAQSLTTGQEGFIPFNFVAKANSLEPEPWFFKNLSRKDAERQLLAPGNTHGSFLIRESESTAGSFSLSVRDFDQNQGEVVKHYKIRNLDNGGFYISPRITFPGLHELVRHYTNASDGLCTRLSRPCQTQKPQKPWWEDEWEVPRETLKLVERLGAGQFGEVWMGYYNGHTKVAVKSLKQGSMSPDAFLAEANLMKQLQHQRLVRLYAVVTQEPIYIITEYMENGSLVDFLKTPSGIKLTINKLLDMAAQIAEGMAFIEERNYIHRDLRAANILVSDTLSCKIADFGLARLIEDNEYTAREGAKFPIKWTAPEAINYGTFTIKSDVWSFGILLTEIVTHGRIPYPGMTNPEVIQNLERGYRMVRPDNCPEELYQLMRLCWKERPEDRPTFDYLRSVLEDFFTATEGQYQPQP
pIC50: −log10 of the molar value.

- COc1cc(-c2nc([C@H]3CC[C@@H](N(C)C)CC3)n3ccnc(C)c23)ccc1NC(=O)c1cc2c(OC)cccc2n1C [Example 26e]: ≥ 8.00

Query: Need pIC50 of COc1cc(-c2nc([C@@H]3CCN(C4CCOCC4)C3)n3ccnc(C)c23)ccc1NC(=O)c1cc2c(OC)cccc2n1C , thanks.
Result: 7.00 to 8.00

Query: Using the record for COc1cc(-c2nc(Cn3ccnc3)n3ccnc(C)c23)ccc1NC(=O)c1cc2c(OC)cccc2n1C , report its pIC50.
Result: 6.00 to 7.00

Query: Which pIC50 reading was recorded for the compound COc1cc(-c2nc([C@H]3CC[C@H](N)CC3)n3ccnc(C)c23)ccc1NC(=O)c1cc2c(OC)cccc2n1C ?
Result: ≥ 8.00

====

Listing of entries alongside the reported IC50.
molecular target: N-terminal His6-tagged recombinant full-length human Lck (Homo sapiens, UniProt P06239); construct: N-terminal His6-tagged recombinant full-length human Lck; His6 (N); assay: Lck IMAP assay; details: ATP 6 μM (KM,ATP), enzyme pre-incubated with compounds for 60 minutes, values given as bins

Some compounds with known IC50 results, for comparison:
* Cc1nccn2c1c(-c1ccc(NC(=O)c3cc4ccccc4n3C)cc1)nc2[C@H]1CC[C@H](N2CCN(C)CC2)CC1 | ≤ 10 nM
* COc1cc(-c2nc([C@H]3CC[C@H](N4CCN(C)CC4)CC3)n3ccnc(C)c23)ccc1NC(=O)c1cc2ccsc2[nH]1 | ≤ 10 nM
* COc1cc(-c2nc(C3CC(=O)N(C)C3)n3ccnc(C)c23)ccc1NC(=O)c1cc2c(OC)cccc2n1C (stereo not drawn) | ≤ 10 nM
* COc1cc(-c2nc([C@@H]3CCN(C(=O)CO)C3)n3ccnc(C)c23)ccc1NC(=O)c1cc2c(OC)cccc2n1C | ≤ 10 nM
* COc1cc(-c2nc([C@H]3CC[C@H](N4CCOCC4)CC3)n3ccnc(C)c23)ccc1NC(=O)c1cc2ccccc2n1C | ≤ 10 nM

Query: Please report the recorded IC50 for CCC[C@H](C)OC(=O)Nc1ccc(-c2nc([C@H]3CC[C@H](CN)CC3)n3ccnc(C)c23)cc1OC .
Result: ≤ 10 nM

Query: What does the record list as IC50 for COc1cc(-c2nc([C@H]3CC[C@H](N4CCNCC4)CC3)n3ccnc(C)c23)ccc1NC(=O)c1cc2c(OC)cccc2n1C ?
Result: ≤ 10 nM

Query: What does the data say about its IC50? Entry: CCC[C@H](C)OC(=O)Nc1ccc(-c2nc([C@H]3CC[C@H](N(C)CCOC)CC3)n3ccnc(C)c23)cc1OC [Example 26a]
Result: ≤ 10 nM

Query: Could you share which IC50 value was measured for COc1cc(-c2nc([C@H]3CC[C@H](N4CCN(C)CC4)CC3)n3ccnc(C)c23)ccc1NC(=O)c1cc2c(O)cccc2n1C ?
Result: ≤ 10 nM

Query: Need IC50, item COc1cc(-c2nc([C@H]3CC[C@H](N4CCN(C)CC4)CC3)n3ccnc(C)c23)ccc1NC(=O)c1cc2ccsc2n1C
Result: ≤ 10 nM

Query: May I ask what IC50 has been recorded for COc1cccc2c1cc(C(=O)Nc1ccc(-c3nc([C@H]4CC[C@H](N5CCN(C)CC5)CC4)n4ccnc(C)c34)cc1O)n2C ?
Result: ≤ 10 nM
